Entries and their activity score (inhibition)
Assay: inhibitors of intracellular Trypanosoma cruzi, primary screen, cell-based, plate reader, single point, set 2 (AID 651903);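 also: parasites and compound incubated about four days before reading; 0% = median of neutral control wells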
Conditions: intracellular Trypanosoma cruzi in host cells, at 5.01 µM, hits give high values
About 1,100 (5%) of roughly 22,000 compounds were called active. This excerpt belongs to a sample that is enriched for actives.
endpoint: activity score (inhibition) (%)

C[C@@H]1CN([C@H](C)CO)C(=O)Cc2cc(NC(=O)Nc3cccc4ccccc34)ccc2O[C@@H]1CN(C)Cc1ccc(C(=O)O)cc1 :: -16
COc1ccc(S(=O)(=O)N(C)C[C@H]2Oc3c(NS(=O)(=O)c4ccc(F)cc4)cccc3C(=O)N([C@H](C)CO)C[C@H]2C)cc1 :: 71.9
C[C@@H]1CN([C@H](C)CO)C(=O)Cc2cc(NC(=O)Nc3ccc4c(c3)OCO4)ccc2O[C@H]1CN(C)Cc1ccc(C(=O)O)cc1 :: -10.7
COc1ccc(CN(C)C[C@@H]2Oc3ccc(NC(=O)Nc4ccc(OC)cc4)cc3CC(=O)N([C@H](C)CO)C[C@H]2C)cc1 :: 12
CC(C)NC(=O)Nc1cccc2c1O[C@@H](CN(C)S(=O)(=O)c1ccc(F)cc1)[C@@H](C)CN([C@H](C)CO)C2=O :: -25.4
C[C@@H]1CN([C@@H](C)CO)C(=O)c2cccc(NC(=O)Nc3ccc(F)cc3)c2O[C@@H]1CN(C)C(=O)Nc1ccccc1 :: -2.37
C[C@@H]1CN([C@H](C)CO)C(=O)c2cccc(NC(=O)Nc3ccc(F)cc3)c2O[C@@H]1CN(C)C(=O)Nc1ccc(C(F)(F)F)cc1 :: -4.83
